Cited source for all entries: ChEMBL document CHEMBL4346739

Assay: Octanol/water partition co-efficient, log P of compound at pH 7.4 by shake-flask method
Format: physicochemical
assay-readout: logD
I only need the number, thanks.

Query: State the recorded logD for this entry: COc1cc(NCc2ccc(Oc3c(N)cccc3Cl)cc2)cc(OC)c1OC
Reply: 3.78

Query: Any idea what its logD is? The compound is Nc1cccc(Cl)c1Oc1ccc(CNc2ccccc2)cc1
Reply: 3.54

Query: Name the reported logD value associated with the compound Nc1cccc(Cl)c1Oc1ccc(CNc2cccc(Br)c2)cc1
Reply: 4.05

Query: For the compound shown here, Nc1cccc(Cl)c1Oc1ccc(CNc2cc(Cl)cc(Cl)c2)cc1 , give the reported logD.
Reply: 4.39

Query: Which logD is listed for COc1cc(NCc2ccc(Oc3c(N)cccc3Cl)cc2)cc(OC)c1 ?
Reply: 3.56

Query: Consider the compound shown here: COc1cccc(NCc2ccc(Oc3c(N)cccc3Cl)cc2)c1 What is its recorded logD?
Reply: 3.98

Query: Fill in: logD of Nc1cccc(Cl)c1Oc1ccc(CNc2ccc(O)cc2)cc1 is ___
Reply: 3.15

Query: State the recorded logD for this entry: Nc1cccc(Cl)c1Oc1ccc(CNc2cccc(O)c2)cc1
Reply: 3.01

Query: Would you mind telling me what logD value was observed for Nc1cccc(Cl)c1Oc1ccc(CNc2cccc(Cl)c2)cc1 ?
Reply: 3.98

Query: Name the reported logD value associated with the compound Nc1cccc(Cl)c1Oc1ccc(CNc2cc(Br)cc(Br)c2)cc1
Reply: 4.52

Query: May I ask what logD has been recorded for Nc1cccc(Cl)c1Oc1ccc(CNc2ccc(Br)cc2)cc1 ?
Reply: 4.52

Query: Can you look up the measured logD of COc1ccc(NCc2ccc(Oc3c(N)cccc3Cl)cc2)cc1 for me?
Reply: 3.33

Query: Can you share its logD? I mean this compound: Nc1cccc(Cl)c1Oc1ccc(CNc2ccc(Cl)cc2)cc1
Reply: 4.65

----------
Task for the reader: assign each of the following compounds its reported IC50.
Target: Acetylcholinesterase (Homo sapiens, UniProt P22303)
Sequence (P22303 whole entry): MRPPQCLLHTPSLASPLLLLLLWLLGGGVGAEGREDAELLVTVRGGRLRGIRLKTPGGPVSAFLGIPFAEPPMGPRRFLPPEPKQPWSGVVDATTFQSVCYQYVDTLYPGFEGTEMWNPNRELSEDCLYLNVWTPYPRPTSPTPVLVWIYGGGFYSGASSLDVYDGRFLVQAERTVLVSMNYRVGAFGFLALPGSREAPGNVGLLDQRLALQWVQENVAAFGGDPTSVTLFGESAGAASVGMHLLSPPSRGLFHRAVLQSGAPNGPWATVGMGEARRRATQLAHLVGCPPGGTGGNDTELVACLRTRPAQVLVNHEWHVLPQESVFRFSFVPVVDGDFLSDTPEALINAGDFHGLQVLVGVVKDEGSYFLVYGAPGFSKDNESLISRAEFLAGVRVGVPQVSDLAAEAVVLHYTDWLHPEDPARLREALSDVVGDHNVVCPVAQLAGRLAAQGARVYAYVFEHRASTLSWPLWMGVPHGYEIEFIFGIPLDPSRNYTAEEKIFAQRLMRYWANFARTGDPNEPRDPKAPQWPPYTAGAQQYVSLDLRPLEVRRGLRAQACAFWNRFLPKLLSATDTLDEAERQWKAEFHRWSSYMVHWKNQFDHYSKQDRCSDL
Assay: Inhibition of human erythrocyte AChE using acetylthiocholine iodide as substrate preincubated for 10 mins followed by substrate addition and measured for 6 mins by Ellman's method
The reply should contain only the number, in µM.

Query: For the compound shown here, COc1cccc(NCc2ccc(Oc3c(N)cccc3Cl)cc2)c1 , give the reported IC50.
Reply: 5.65

Query: Consider the compound shown here: COc1cc(NCc2ccc(Oc3c(N)cccc3Cl)cc2)cc(OC)c1 What is its recorded IC50?
Reply: 2.88

Query: What value of IC50 has been recorded for this entry: COc1ccc(NCc2ccc(Oc3c(N)cccc3Cl)cc2)cc1
Reply: 5.24

Query: Given COc1cc(NCc2ccc(Oc3c(N)cccc3Cl)cc2)cc(OC)c1OC , state its recorded IC50.
Reply: 1.32

Query: Given Nc1cccc(Cl)c1Oc1ccc(CNc2cccc(O)c2)cc1 , state its recorded IC50.
Reply: 7.23

Query: Report IC50 for Nc1cccc(Cl)c1Oc1ccc(CNc2ccc(O)cc2)cc1 please.
Reply: 8.81

----------
Target: Cholinesterase (Homo sapiens)
Experiment: Inhibition of human plasma BChE using butyrylthiocholine iodide as substrate preincubated for 10 mins followed by substrate addition and measured at 6 mins by Ellman's method
Assignment: determine reported IC50 for the given compounds.

Query: // map Nc1cccc(Cl)c1Oc1ccc(CNc2ccc(O)cc2)cc1 to recorded IC50 (system: Cholinesterase (Homo sapiens))
Reply: 9.36 µM

Query: Cholinesterase (Homo sapiens) / IC50 / COc1cccc(NCc2ccc(Oc3c(N)cccc3Cl)cc2)c1 : value?
Reply: 8.25 µM

Query: Give recorded IC50 with Cholinesterase (Homo sapiens) for the following compound: Nc1cccc(Cl)c1Oc1ccc(CNc2cc(Br)cc(Br)c2)cc1
Reply: > 10 µM

Query: Requested read-out IC50, target or system Cholinesterase (Homo sapiens), entry Nc1cccc(Cl)c1Oc1ccc(CNc2cc(Cl)cc(Cl)c2)cc1
Reply: > 10 µM

Query: Value wanted: IC50 (Cholinesterase (Homo sapiens)) of entry Nc1cccc(Cl)c1Oc1ccc(CNc2cccc(Cl)c2)cc1
Reply: > 10 µM

Query: Cholinesterase (Homo sapiens) / IC50 / Nc1cccc(Cl)c1Oc1ccc(CNc2ccc(Br)cc2)cc1 : value?
Reply: > 10 µM

----------
Answer each item with its documented pIC50.
Target: Cholinesterase (Homo sapiens, UniProt P06276)
Sequence (P06276 whole entry): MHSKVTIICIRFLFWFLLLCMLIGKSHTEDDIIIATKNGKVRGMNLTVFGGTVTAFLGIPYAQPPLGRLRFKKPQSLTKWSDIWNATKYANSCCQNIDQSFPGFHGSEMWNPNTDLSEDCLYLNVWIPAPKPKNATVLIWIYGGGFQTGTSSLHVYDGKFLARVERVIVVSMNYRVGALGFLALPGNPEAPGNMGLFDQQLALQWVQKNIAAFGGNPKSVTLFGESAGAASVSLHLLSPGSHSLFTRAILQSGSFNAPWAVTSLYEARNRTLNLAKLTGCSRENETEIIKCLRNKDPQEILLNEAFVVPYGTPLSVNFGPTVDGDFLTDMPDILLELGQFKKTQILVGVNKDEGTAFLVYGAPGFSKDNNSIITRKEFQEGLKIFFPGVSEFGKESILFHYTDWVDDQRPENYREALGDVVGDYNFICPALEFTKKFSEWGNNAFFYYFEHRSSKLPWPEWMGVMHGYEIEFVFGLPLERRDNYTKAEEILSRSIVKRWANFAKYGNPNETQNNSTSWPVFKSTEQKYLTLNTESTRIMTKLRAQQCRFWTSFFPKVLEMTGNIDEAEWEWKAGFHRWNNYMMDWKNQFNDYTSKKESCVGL
Assay: Inhibition of human plasma BChE using butyrylthiocholine iodide as substrate preincubated for 10 mins followed by substrate addition and measured at 6 mins by Ellman's method
Kindly note that pIC50 refers to -log10 of the concentration in mol/L and answer with the value alone.

Query: Record request: pIC50 value, item COc1ccc(NCc2ccc(Oc3c(N)cccc3Cl)cc2)cc1
Reply: 5.00

Query: Data request, read-out pIC50, for COc1cc(NCc2ccc(Oc3c(N)cccc3Cl)cc2)cc(OC)c1OC
Reply: 5.08

Query: Tell me the measured pIC50 of Nc1cccc(Cl)c1Oc1ccc(CNc2cccc(O)c2)cc1 , please.
Reply: 5.02

Query: Which pIC50 value is on record for COc1cc(NCc2ccc(Oc3c(N)cccc3Cl)cc2)cc(OC)c1 ?
Reply: 5.19

----------
Molecular target: Acetylcholinesterase (Homo sapiens)
assay-readout: pKi
Lab note — pKi values are minus log10 of concentrations in M.

Query: Form field - read-out: pKi; system: Acetylcholinesterase (Homo sapiens); submitted item: COc1cc(NCc2ccc(Oc3c(N)cccc3Cl)cc2)cc(OC)c1OC
Reply: 6.06

----------
Assay: Permeability of compound at 25 ug/ml at pH 7.4 incubated for 18 hrs by PAMPA-BBB assay
Where Papp at 18 h, 25 ug/ml equals or exceeds 6 ×10⁻⁶ cm/s, the correct label is yes; where it does not, the label is no.

Query: Record COc1cccc(NCc2ccc(Oc3c(N)cccc3Cl)cc2)c1 ; criterion: Papp at 18 h, 25 ug/ml no lower than 6 ×10⁻⁶ cm/s. Met?
Reply: no

Query: Assess whether reported Papp at 18 h, 25 ug/ml for COc1cc(NCc2ccc(Oc3c(N)cccc3Cl)cc2)cc(OC)c1 sits at 6 ×10⁻⁶ cm/s or higher.
Reply: no

Query: Tell me whether Papp at 18 h, 25 ug/ml is at least 6 ×10⁻⁶ cm/s here: Nc1cccc(Cl)c1Oc1ccc(CNc2ccc(Br)cc2)cc1
Reply: no

Query: For this compound, is measured Papp at 18 h, 25 ug/ml 6 ×10⁻⁶ cm/s or higher? COc1cc(NCc2ccc(Oc3c(N)cccc3Cl)cc2)cc(OC)c1OC
Reply: yes

Query: // inclusive: Papp at 18 h, 25 ug/ml at least 6 ×10⁻⁶ cm/s? input: Nc1cccc(Cl)c1Oc1ccc(CNc2cccc(O)c2)cc1
Reply: no

Query: Could you please find out whether Nc1cccc(Cl)c1Oc1ccc(CNc2cc(Cl)cc(Cl)c2)cc1 has Papp at 18 h, 25 ug/ml that meets 6 ×10⁻⁶ cm/s or exceeds it?
Reply: no

Query: Papp at 18 h, 25 ug/ml >= 6 ×10⁻⁶ cm/s for COc1ccc(NCc2ccc(Oc3c(N)cccc3Cl)cc2)cc1 ?
Reply: no

Query: Is Papp at 18 h, 25 ug/ml for Nc1cccc(Cl)c1Oc1ccc(CNc2cc(Br)cc(Br)c2)cc1 at or above 6 ×10⁻⁶ cm/s?
Reply: no

Query: Determine whether measured Papp at 18 h, 25 ug/ml meets or exceeds 6 ×10⁻⁶ cm/s for Nc1cccc(Cl)c1Oc1ccc(CNc2ccc(O)cc2)cc1
Reply: yes

Query: Please check the record Nc1cccc(Cl)c1Oc1ccc(CNc2cccc(Br)c2)cc1 and state if its Papp at 18 h, 25 ug/ml is at or above 6 ×10⁻⁶ cm/s.
Reply: no

Query: Has Nc1cccc(Cl)c1Oc1ccc(CNc2ccc(Cl)cc2)cc1 a recorded Papp at 18 h, 25 ug/ml greater than or equal to 6 ×10⁻⁶ cm/s?
Reply: no

Query: Check the entry Nc1cccc(Cl)c1Oc1ccc(CNc2cccc(Cl)c2)cc1 : does Papp at 18 h, 25 ug/ml equal or exceed 6 ×10⁻⁶ cm/s?
Reply: no

Query: Hello, I need to know if Nc1cccc(Cl)c1Oc1ccc(CNc2ccccc2)cc1 has measured Papp at 18 h, 25 ug/ml not below 6 ×10⁻⁶ cm/s. Thanks!
Reply: yes

----------
For each record, write down the corresponding IC50.
Molecular target: Cholinesterase (Homo sapiens, UniProt P06276)
Experiment: Inhibition of human plasma BChE using butyrylthiocholine iodide as substrate preincubated for 10 mins followed by substrate addition and measured at 6 mins by Ellman's method

Query: // IC50 lookup, key: Nc1cccc(Cl)c1Oc1ccc(CNc2ccccc2)cc1
Reply: > 10 µM

Query: Which IC50 value is on record for Nc1cccc(Cl)c1Oc1ccc(CNc2cccc(Br)c2)cc1 ?
Reply: > 10 µM

Query: For Nc1cccc(Cl)c1Oc1ccc(CNc2ccc(Cl)cc2)cc1 , what is its reported IC50?
Reply: > 10 µM

----------
Exercise: for every item that follows, state its recorded Papp at 18 h, 25 ug/ml.
Experiment: Permeability of compound at 25 ug/ml at pH 7.4 incubated for 18 hrs by PAMPA-BBB assay

Query: Endpoint output: Papp at 18 h, 25 ug/ml of CC(=O)[C@H]1CC[C@H]2[C@@H]3CCC4=CC(=O)CC[C@]4(C)[C@H]3CC[C@]12C [PROGESTERONE] . Value?
Reply: 9.3 to 13.8 ×10⁻⁶ cm/s

Query: Please look up its Papp at 18 h, 25 ug/ml: NCCc1ccc(O)c(O)c1 [DOPAMINE]
Reply: 0.18 to 0.2 ×10⁻⁶ cm/s

Query: Field request: Papp at 18 h, 25 ug/ml | item: CCn1cc(C(=O)O)c(=O)c2cc(F)c(N3CCNC(C)C3)c(F)c21 (stereo not given) [LOMEFLOXACIN]
Reply: 0.31 to 1.1 ×10⁻⁶ cm/s

Query: Papp at 18 h, 25 ug/ml for CN(C)CCCN1c2ccccc2Sc2ccc(Cl)cc21 [CHLORPROMAZINE] ?
Reply: 5.8 to 6.5 ×10⁻⁶ cm/s

Query: Request the reported Papp at 18 h, 25 ug/ml associated with Cc1nnc2n1-c1ccc(Cl)cc1C(c1ccccc1)=NC2 [ALPRAZOLAM]
Reply: 4.2 to 5.4 ×10⁻⁶ cm/s
